- TARGET_DESC: Phosphatidylinositol 4,5-bisphosphate 3-kinase catalytic subunit gamma isoform (Homo sapiens)
- Sequence (P48736 whole entry, canonical isoform): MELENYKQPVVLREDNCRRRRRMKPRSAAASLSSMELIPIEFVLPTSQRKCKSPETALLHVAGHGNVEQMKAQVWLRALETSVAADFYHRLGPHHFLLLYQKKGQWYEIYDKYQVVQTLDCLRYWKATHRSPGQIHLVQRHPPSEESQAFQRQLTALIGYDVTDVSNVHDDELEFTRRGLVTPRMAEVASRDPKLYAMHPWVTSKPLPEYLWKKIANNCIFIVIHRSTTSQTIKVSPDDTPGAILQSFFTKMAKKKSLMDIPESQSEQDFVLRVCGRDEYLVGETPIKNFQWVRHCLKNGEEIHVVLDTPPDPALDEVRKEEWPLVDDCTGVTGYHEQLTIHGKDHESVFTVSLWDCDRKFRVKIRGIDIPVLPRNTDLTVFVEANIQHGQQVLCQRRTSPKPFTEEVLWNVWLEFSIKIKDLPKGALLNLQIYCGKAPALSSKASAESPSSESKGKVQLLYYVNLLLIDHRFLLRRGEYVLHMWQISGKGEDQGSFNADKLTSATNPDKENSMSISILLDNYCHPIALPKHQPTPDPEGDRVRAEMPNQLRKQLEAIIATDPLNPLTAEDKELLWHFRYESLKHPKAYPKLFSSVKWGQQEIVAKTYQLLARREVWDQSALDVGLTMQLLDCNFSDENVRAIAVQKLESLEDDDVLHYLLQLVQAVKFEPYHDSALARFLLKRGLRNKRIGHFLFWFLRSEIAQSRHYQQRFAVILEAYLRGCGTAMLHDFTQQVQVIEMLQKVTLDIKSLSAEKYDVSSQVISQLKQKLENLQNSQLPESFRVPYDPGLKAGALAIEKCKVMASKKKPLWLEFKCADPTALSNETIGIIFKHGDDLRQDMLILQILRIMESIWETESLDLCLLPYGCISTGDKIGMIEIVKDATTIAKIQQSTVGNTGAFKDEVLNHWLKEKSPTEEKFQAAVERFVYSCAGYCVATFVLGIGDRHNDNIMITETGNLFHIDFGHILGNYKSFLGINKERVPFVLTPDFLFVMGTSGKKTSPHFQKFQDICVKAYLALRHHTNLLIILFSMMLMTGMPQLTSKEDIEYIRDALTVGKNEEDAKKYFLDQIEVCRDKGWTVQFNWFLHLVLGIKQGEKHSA
- PROCEDURE_DETAILS: Inhibition of P13Kgamma (unknown origin)
REPORTED_ENDPOINT: IC50 (µM)
Numbers only, in µM.

Q. Report IC50, nothing else, for this compound: Cn1cnc(N)c2ncnc1-2
A. 60

* * *

- TARGET_DESC: Phosphatidylinositol 3-kinase catalytic subunit type 3 (Homo sapiens, UniProt Q8NEB9)
- Sequence (Q8NEB9 whole entry): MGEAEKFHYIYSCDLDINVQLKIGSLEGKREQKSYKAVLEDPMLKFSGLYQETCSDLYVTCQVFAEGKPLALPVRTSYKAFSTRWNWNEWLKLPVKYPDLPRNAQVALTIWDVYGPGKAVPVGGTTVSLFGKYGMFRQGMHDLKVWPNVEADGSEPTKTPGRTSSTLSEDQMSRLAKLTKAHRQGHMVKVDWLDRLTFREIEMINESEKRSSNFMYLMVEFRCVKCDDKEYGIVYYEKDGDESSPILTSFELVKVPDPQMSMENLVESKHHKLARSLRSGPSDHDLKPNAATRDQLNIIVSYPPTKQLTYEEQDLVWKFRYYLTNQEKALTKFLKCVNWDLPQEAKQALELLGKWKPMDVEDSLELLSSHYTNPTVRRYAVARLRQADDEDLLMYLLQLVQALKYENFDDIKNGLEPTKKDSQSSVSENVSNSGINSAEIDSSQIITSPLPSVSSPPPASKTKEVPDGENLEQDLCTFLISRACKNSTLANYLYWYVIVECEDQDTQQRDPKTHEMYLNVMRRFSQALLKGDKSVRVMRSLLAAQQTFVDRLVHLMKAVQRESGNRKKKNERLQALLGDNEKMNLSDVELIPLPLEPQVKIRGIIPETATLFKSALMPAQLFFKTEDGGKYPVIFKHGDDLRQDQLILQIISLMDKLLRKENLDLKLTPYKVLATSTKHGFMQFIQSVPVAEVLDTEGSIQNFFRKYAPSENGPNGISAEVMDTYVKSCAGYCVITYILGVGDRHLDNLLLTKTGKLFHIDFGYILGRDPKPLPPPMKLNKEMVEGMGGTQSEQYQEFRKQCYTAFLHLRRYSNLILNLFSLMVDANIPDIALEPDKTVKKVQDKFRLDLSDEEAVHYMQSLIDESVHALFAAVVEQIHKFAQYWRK
- PROCEDURE_DETAILS: Inhibition of VPS34 (unknown origin)
# strict inequality: IC50 < 100 nM yields yes (1), everything else yields no (0)

Consider the following illustrative entries.
# COMPOUND, TARGET_DESC, CLASS_LABEL
data = [
    ("COC[C@H]1OC(=O)c2coc3c2[C@@]1(C)C1=C(C3=O)[C@@H]2C[C@@H](OC(C)=O)C(OC(C)=O)[C@@]2(C)C[C@H]1OC(C)=O (stereo partly specified)", "Phosphatidylinositol 3-kinase catalytic subunit type 3 (Homo sapiens, UniProt Q8NEB9)", "no (0)"),
    ("Cc1cc(Nc2cc(Cl)nc(OCc3ccc([N+](=O)[O-])cc3)n2)n[nH]1", "Phosphatidylinositol 3-kinase catalytic subunit type 3 (Homo sapiens, UniProt Q8NEB9)", "no (0)"),
    ("Cc1cc(Nc2cc(N3CCOCC3)nc(Oc3ccc([N+](=O)[O-])cc3)n2)n[nH]1", "Phosphatidylinositol 3-kinase catalytic subunit type 3 (Homo sapiens, UniProt Q8NEB9)", "no (0)"),
    ("NS(=O)(=O)c1ccc(Oc2nc(Cl)cc(Nc3cc[nH]n3)n2)cc1", "Phosphatidylinositol 3-kinase catalytic subunit type 3 (Homo sapiens, UniProt Q8NEB9)", "yes (1)"),
    ("N#Cc1ccc(Oc2nc(Cl)cc(Nc3cc[nH]n3)n2)cc1", "Phosphatidylinositol 3-kinase catalytic subunit type 3 (Homo sapiens, UniProt Q8NEB9)", "yes (1)"),
    ("CCN/C=C1\\C(=O)O[C@H](COC)[C@@]2(C)C1=C(O)C(=O)C1=C2[C@H](OC(C)=O)C[C@]2(C)C(=O)CC[C@@H]12", "Phosphatidylinositol 3-kinase catalytic subunit type 3 (Homo sapiens, UniProt Q8NEB9)", "no (0)"),
]

Q. Please determine if COC(=O)c1coc2c(O)c3c(c(C)c12)C=C[C@]1(C)C(=O)CC[C@@H]31 is below 100 nM in terms of IC50.
A. no (0)

Q. Please indicate whether the reported IC50 of CCCN/C=C1\C(=O)O[C@H](COC)[C@@]2(C)C1=C(O)C(=O)C1=C2[C@H](OC(C)=O)C[C@]2(C)C(=O)CC[C@@H]12 is strictly below 100 nM.
A. no (0)

Q. Please let me know if COC[C@H]1OC(=O)C23CC2COC2=C3[C@@]1(C)C1=C(C2=O)[C@@H]2CCC(=O)[C@@]2(C)C[C@H]1OC(C)=O (stereo partly specified) shows IC50 below 100 nM.
A. no (0)

Q. Item COC[C@H]1OC(=O)c2coc3c2[C@@]1(C)C1=C(C3=O)[C@@H]2CC[C@H](O)[C@@]2(C)C[C@H]1OC(C)=O : IC50 beneath 100 nM, strictly?
A. yes (1)

Q. # check: IC50 < 100 nM for COC[C@H]1OC(=O)c2coc3c2[C@@]1(C)C1=C(C3=O)[C@@H]2CCC(=O)[C@@]2(C)CC1
A. yes (1)

Q. Problem: For the compound Cc1cc(Nc2cc(N(C)C)nc(Oc3ccc([N+](=O)[O-])cc3)n2)n[nH]1 , is IC50 under 100 nM?
A. no (0)

Q. Is 100 nM strictly greater than the compound's reported IC50? compound: COC[C@H]1OC(=O)c2coc3c2[C@@]1(C)C1=C(C3=O)[C@@H]2CCC(=O)[C@@]2(C)C[C@H]1OC(C)=O
A. yes (1)

Q. Lab note: IC50 threshold 100 nM. Does this compound come in strictly under it? CC(C)(C)c1cc(Nc2cc(Cl)nc(Oc3ccc([N+](=O)[O-])cc3)n2)n[nH]1
A. no (0)

Q. Quick check: does COC[C@H]1OC(=O)c2c(C)oc3c2[C@@]1(C)C1=C(C3=O)[C@@H]2CCC(=O)[C@@]2(C)C[C@H]1OC(C)=O have IC50 under 100 nM?
A. no (0)

Q. # check: IC50 < 100 nM for CCN(/C=C1\C(=O)O[C@H](COC)[C@@]2(C)C1=C(O)C(=O)C1=C2[C@H](OC(C)=O)C[C@]2(C)C(=O)CC[C@@H]12)CC
A. yes (1)

Q. Dear reviewer, please state whether Cc1cc(Nc2cc(Cl)nc(Oc3ccc([N+](=O)[O-])cc3)n2)no1 has IC50 strictly beneath 100 nM.
A. yes (1)

Q. Determine if COC[C@H]1OC(=O)c2coc3c2[C@@]1(C)C1=C(C3=O)[C@@H]2CCC(OC(C)=O)[C@@]2(C)C[C@H]1OC(C)=O (stereo partly specified) shows IC50 strictly lower than 100 nM.
A. yes (1)
